Data origin, for the record: patent US20220306762A1

test system: T1, His-tagged mouse CD38 (ACRO Biosystems CD8-M5223) (mouse, UniProt P56528 45-304)
T1 construct: bought protein; used for ELISA coating and as SPR analyte; also called Murine; not shown: His tag
T1 sequence (looked up): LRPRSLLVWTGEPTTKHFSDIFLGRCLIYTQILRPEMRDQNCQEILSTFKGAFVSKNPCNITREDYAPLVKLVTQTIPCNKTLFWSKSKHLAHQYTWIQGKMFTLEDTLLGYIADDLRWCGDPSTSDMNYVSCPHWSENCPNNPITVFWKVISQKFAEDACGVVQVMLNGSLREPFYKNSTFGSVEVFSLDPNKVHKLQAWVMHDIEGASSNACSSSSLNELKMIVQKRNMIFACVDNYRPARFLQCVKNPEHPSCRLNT
experimental protocol: SPR (second run), His-tagged CD38
Kd by entry:
reported endpoint: Kd (nM)

1. 40617p1.2.A1 (scFv, V domains shown) VH: EVQLLESGGGLVQPGGSLRLSCAASGFTFSSYWMTWVRQAPGKGLEWVSAISSYGGQYTYYADSVKGRFTISRDNSKDTLYLHMDSLRAEDTAVYYCAKDWDDGMDVWGQGTTVTVSS VL: EIVMTQSPAVLSVSPGERATLSCRASQSVNIKLAWYQQKPGQAPRLLIYGASTRAAGIPDRFSGSGSGTDFTLTISSLQSDDFAVYYCQQYYDLPPYSFGGGTKVEIK	141
2. 40769p1.1.B10 (scFv, V domains shown) VH: EVQLLESGGGLVQPGGSLRLSCTASGITFSRFNMFWVRQAPGKGLEFVASIRDDGSWTYYADSVKGRFTISRDNSKNTLYLQMNSLRAEDTAVYYCAKDYNSKDFIYHYVMDVWGQGTTVTVSS VL: QSVLTQPPSASGTPGQRVTISCSGRNSNIGNNVVNWYQQLPGTAPKLLIYRNQERPSGVPDRFSGSKSGTSASLAISGLQSEDEADYYCSTWDDSLNGWVFGGGTKLTVL	501
3. 40617p1.2.H1 (scFv, V domains shown) VH: EVQLLESGGGLVQPGGSLRLSCAASGFTFTNYWMTWVRQAPGKGLEWVSAISSYGGNYMYYADSVKGRFTISRDNSENTLYLQMNSLRAEDTAVYYCAKDWDDGMDVWGQGTTVTVSS VL: EIVMTQSPAVLSVSPGERATLSCRASQTVGSKLAWYQQKPGQAPRLLIYGVSTRAAGIPDRFSGSGSGTDFTLTISSLQSEDFAVYYCQQYYDLPPYSFGGGTKVEIK	73
